tested on: EKVX NSCLC; assay: NCI tumour cell line growth inhibition, 48 h
Where a SMILES comes first, the peptide text is derived from it. [ ]: non-standard residue; d: D form. The star is where a group is joined. ξ: configuration not given here. NMeF = CN[C@@H](Cc1ccccc1)C(=O)O; NMeV = CN[C@H](C(=O)O)C(C)C; ξNMeN = CNC(CC(N)=O)C(=O)O; NMeA = CN[C@@H](C)C(=O)O; ξNMeV = CNC(C(=O)O)C(C)C; Boc = CC(C)(C)OC(=O)*
Below is a list of entries, each paired with its recorded TGI value.

[[record]]
compound = "N#CNC(=NCCO)NCCO"
experimental_readout = "TGI"
result_value = "> 100 µM"


## Task Reported TGI, compound COc1ccc(/C=C/C(=O)c2sc(NC(=S)NC(=O)c3ccc(Cl)cc3)nc2C)cc1OC : ____
## Result > 100 µM

## Task Reported TGI, compound c1ccc(-c2nnc(CCCCCCCCc3nnc(-c4ccccc4)o3)o2)cc1 : ____
## Result > 100 µM

## Task Reported TGI, compound Cn1nc(-c2cccc(-c3nn(C)c(=NCCO)s3)n2)sc1=NCCO : ____
## Result > 100 µM

## Task Reported TGI, compound CSc1nc(NC2OC(COC(C)=O)C(OC(C)=O)C(OC(C)=O)C2OC(C)=O)c(N=CC=Nc2c(NC3OC(COC(C)=O)C(OC(C)=O)C(OC(C)=O)C3OC(C)=O)nc(SC)[nH]c2=O)c(=O)[nH]1 (stereo not given) : ____
## Result > 100 µM

## Task Reported TGI, compound CC1=C(C(=O)CC(=O)C(=O)Nc2ccc(Cl)cc2C)Sc2ccccc2N1 : ____
## Result > 100 µM

## Task Reported TGI, compound COc1cc2nn(-c3ccccc3)nc2c2nonc12 : ____
## Result > 100 µM

## Task Reported TGI, compound C=CCCCCNC(=O)C[C@@H]1C2=C(CC[C@H]1O[Si](C)(C)C(C)(C)C)N1C(=O)CCC/C=C\C1C2 (stereo not given in full) : ____
## Result 31.1 µM

## Task Reported TGI, compound O=C1C(C=NC(=S)c2ccccc2)=C(O)c2ccccc21 : ____
## Result > 100 µM

## Task Reported TGI, compound CN(C)CC1CC/C(=C\c2ccc(Cl)cc2)C1=O (stereo not given) : ____
## Result 30.1 µM

## Task Reported TGI, compound COC(=O)c1cnc(Cl)c([N+](=O)[O-])c1 : ____
## Result 3.28 µM

## Task Reported TGI, compound CC(CCOc1ccc2ccc(=O)oc2c1)C1=CC(=O)C(C)(C)O1 (stereo not given) : ____
## Result 15.1 µM

## Task Reported TGI, compound CCC(=O)OC1=C(c2ccccc2)Sc2ccc(Cl)cc2-n2cccc21 : ____
## Result > 10 µM

## Task Reported TGI, compound CCOC(=O)[C@@H]1[C@@H]2NC(=O)N[C@@]1(C)Oc1ccccc12 : ____
## Result > 100 µM

## Task Reported TGI, compound Cc1csc2nc(-c3ccncc3)cn12 : ____
## Result > 100 µM

## Task Reported TGI, compound O=C(Nc1ccc(Cl)cc1)Nc1ccc(Cl)c(C(F)(F)F)c1 : ____
## Result 11 µM

## Task Reported TGI, compound CCN=c1nc2sc3c(c2c(NC(=S)NCC)s1)CCN(N1CCc2c(sc4nc(=NCC)sc(NC(=S)NCC)c24)C1)C3 : ____
## Result > 100 µM

## Task Reported TGI, compound COC(=O)[C@H](C)N(C)C(=O)C(CC(N)=O)N(C)C(=O)[C@H](Cc1ccccc1)N(C)C(=O)[C@@H]1CCCN1C(=O)[C@H](C(C)C)N(C)C(=O)C(C(C)C)N(C)C(=O)[C@@H](NC(=O)OC(C)(C)C)C(C)C (stereo not given in full) (Boc-V[ξNMeV][NMeV]P[NMeF][ξNMeN][NMeA]-OMe) : ____
## Result > 75 µM

## Task Reported TGI, compound COc1ccc(/C=C/C2C(C#N)=C(N)OC3=C2C(=O)CCC3)cc1 (stereo not given) : ____
## Result > 100 µM

## Task Reported TGI, compound Clc1ccc(Cn2c(CN3CCCC3)nc3ccccc32)cc1 : ____
## Result 67.7 µM

* * *

tested on: NCI/ADR-RES ovarian; experiment: NCI tumour cell line growth inhibition, 48 h
experimental_readout: TGI

Known TGI results, listed for orientation:
[[record]]
molecule = "Cn1c(-c2ccccc2)cc(-c2cccs2)c1-c1ccsc1"
result_value = "> 100 µM"

[[record]]
molecule = "O=C1C(C=NC(=S)c2ccccc2)=C(O)c2ccccc21"
result_value = "> 100 µM"

[[record]]
molecule = "c1ccc2c(c1)Oc1cccc3cccc-2c13"
result_value = "> 100 µM"

[[record]]
molecule = "O=c1c(=O)c2cscc2c1=O"
result_value = "> 25 µM"

[[record]]
molecule = "Cc1cc(N(CCC#N)CCC#N)ccc1/C=N/NC(=O)c1ccccc1"
result_value = "36.1 µM"


## Task Reported TGI, molecule O=c1ncc(I)cn1C1CC(O)C(CO)O1 (centres undefined) : ____
## Result > 3250 µM

## Task Reported TGI, molecule COc1ccc(C(=O)/C=C/c2ccc(Oc3cc(C(=O)/C=C/c4ccc(O)cc4)c(O)cc3OC)cc2)c(O)c1 : ____
## Result 11 µM

## Task Reported TGI, molecule Cc1ccc(C2=NN(c3ccc(S(C)(=O)=O)cc3)C(=O)CC2)cc1 : ____
## Result > 100 µM

## Task Reported TGI, molecule Cc1cc2cn3c4ccc(O)cc4nc(N)c3c2cc1C : ____
## Result 0.498 µM

## Task Reported TGI, molecule COC(=O)/C=C1/SC(=Nc2ccc(F)cc2)N(CCc2c[nH]c3ccc(O)cc23)C1=O : ____
## Result > 100 µM

## Task Reported TGI, molecule CC1CC2(OC2C)C(=O)OC2CCN(C)C/C=C(/COC(=O)C1(C)O)C2=O (centres undefined) : ____
## Result > 100 µM

## Task Reported TGI, molecule COc1cc2c(cc1OCCCN1CCN(C)CC1)N=C[C@@H]1CCCN1C2=O : ____
## Result 21.1 µM

## Task Reported TGI, molecule Cc1c2c(n(C)c1C)C(=O)C1C(C2=O)C2(C)c3ccccc3C1(C)c1ccccc12 (centres undefined) : ____
## Result > 100 µM

## Task Reported TGI, molecule COc1ccc(C(NS(=O)(=O)c2ccc(C)cc2)c2c(C(CBr)OC)c3ccccc3n2S(=O)(=O)c2ccccc2)cc1OC (centres undefined) : ____
## Result > 100 µM

* * *

Below is a list of entries, each paired with its recorded TGI value.
tested on: BT-549 breast; assay: NCI tumour cell line growth inhibition, 48 h

## Task Reported TGI, compound CC12CCC([C@H](Nc3cc(C(F)(F)F)cc(C(F)(F)F)c3)C1=O)C2(C)C (some centres undefined) : ____
## Result > 100 µM

## Task Reported TGI, compound CC(=O)OCC1OC(Nc2ccc3nc(C)n(-c4ccccc4)c(=O)c3c2)C(OC(C)=O)C(OC(C)=O)C1OC(C)=O (centres undefined) : ____
## Result > 50 µM

## Task Reported TGI, compound CCCCCCN1CCc2c(C)c(C#N)c3nc4ccccc4n3c21 : ____
## Result > 100 µM

## Task Reported TGI, compound c1ccc(-c2nnc(CCCCCCCCc3nnc(-c4ccccc4)o3)o2)cc1 : ____
## Result > 100 µM

* * *

test system: MALME-3M melanoma; assay: NCI tumour cell line growth inhibition, 48 h
experimental_readout: TGI

Known TGI results, listed for orientation:
[[record]]
compound = "Nc1ncnc2c1ncn2C1CC(O)C(CO)O1 (centres undefined)"
result_value = "> 100 µM"

[[record]]
compound = "CC(C)NC(C)C(C)c1ccccc1 (centres undefined)"
result_value = "> 100 µM"

[[record]]
compound = "Clc1c2ncccc2cc2n[nH]nc12"
result_value = "> 100 µM"


Continue with the compound presented below.
## Task Notebook entry, MALME-3M melanoma assay: TGI of CC(=O)N1CCC(Nc2ncc3cc(Oc4ccc(F)cc4F)c(=O)n(C)c3n2)CC1 = ?
## Result > 25 µM

* * *

system: OVCAR-8 ovarian; assay: NCI tumour cell line growth inhibition, 48 h
Below is a list of entries, each paired with its recorded TGI value.
Give the value, in units of µM, as a plain number.

Known TGI results, listed for orientation:
[[record]]
molecule = "C=C(C(=O)OC)N1C(=O)CC(C)C1=O (configuration not stated)"
experimental_readout = "TGI"
result_value = 43.1

[[record]]
molecule = "C=C1CC2(CCOc3ccc(Cl)cc32)OC1=O (configuration not stated)"
experimental_readout = "TGI"
result_value = 16.5

[[record]]
molecule = "Cc1cc(=O)n2nnc3c4ccccc4ccc3n12"
experimental_readout = "TGI"
result_value = 6.97


Continue with the molecule presented below.
## Task Reported TGI, molecule O=C1C=CC2(O)OC/C(=C\c3ccccc3)C(O)=C2C1=O (configuration not stated) : ____
## Result 10.3
